# tgt: T1, DLG3_1, Q92796
# T1 sequence (Q92796 125-227, limits assumed, looked up): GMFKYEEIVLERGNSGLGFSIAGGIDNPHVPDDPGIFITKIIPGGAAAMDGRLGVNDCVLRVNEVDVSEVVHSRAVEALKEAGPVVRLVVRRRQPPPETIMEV
# test name: holdup assay
# Parameters: key: below the threshold = too weak to quantify, mostly under pKd 3.1 to 4
# measurement setup: plain residues with an end cap or a label only (N-terminal biotin on a linker: ado-ado)
measured parameter: pKd

VDSTVKVWTC [TRAF7, Q6Q0C0]; below the threshold
DDEDRLVIEI [ZNF831, Q5JPB2]; below the threshold
ETQVTAETVI [TMEM225B, P0DP42]; below the threshold
QHKTQLQTLI [BPIFA2, Q96DR5]; 3.68
